# Test system: SK-OV-3 multi-cell spheroids, viability
# TEST SUMMARY: Anticancer human tumor SK-OV-3 cell line growth inhibition [IpAb];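 further: viability read after seven days of drug exposure; percent of DMSO vehicle control luminescence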
# PARTICULARS: second compound 0.1 µM; first compound 0.001 µM; hits give low values

MOLECULE	SYSTEM NAME	viability, T/C / %
CC(C)n1nc(-c2ccc3oc(N)nc3c2)c2c(N)ncnc21 + CCN1CCN(Cc2ccc(Nc3ncc(F)c(-c4cc(F)c5nc(C)n(C(C)C)c5c4)n3)nc2)CC1	SK-OV-3 multi-cell spheroids, viability	45.4
Cn1ncnc1[C@H]1c2n[nH]c(=O)c3cc(F)cc(c23)N[C@@H]1c1ccc(F)cc1 + CCN1CCN(Cc2ccc(Nc3ncc(F)c(-c4cc(F)c5nc(C)n(C(C)C)c5c4)n3)nc2)CC1	SK-OV-3 multi-cell spheroids, viability	59.5
Cn1ncnc1[C@H]1c2n[nH]c(=O)c3cc(F)cc(c23)N[C@@H]1c1ccc(F)cc1 + CC(C)NCC(C(=O)N1CCN(c2ncnc3c2C(C)CC3O)CC1)c1ccc(Cl)cc1	SK-OV-3 multi-cell spheroids, viability	78.8
CC(C)n1nc(-c2ccc3oc(N)nc3c2)c2c(N)ncnc21 + CC(C)NCC(C(=O)N1CCN(c2ncnc3c2C(C)CC3O)CC1)c1ccc(Cl)cc1	SK-OV-3 multi-cell spheroids, viability	43.4

###

# Tested on: SK-OV-3 multi-cell spheroids, viability
# TEST SUMMARY: Anticancer human tumor SK-OV-3 cell line growth inhibition [IpAb];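 further: viability read after seven days of drug exposure; percent of DMSO vehicle control luminescence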
# PARTICULARS: second compound 1 µM; first compound 0.1 µM; hits give low values
This section presents compounds with their documented viability, T/C values.

COMPOUND	viability, T/C [%]
Cn1ncc(Cl)c1-c1cc(C(=O)NC(CN)Cc2cccc(F)c2)sc1Cl (stereo unspecified) + CCN1CCN(Cc2ccc(Nc3ncc(F)c(-c4cc(F)c5nc(C)n(C(C)C)c5c4)n3)nc2)CC1	34.7
Cn1ncc(Cl)c1-c1cc(C(=O)NC(CN)Cc2cccc(F)c2)sc1Cl (stereo unspecified) + CC(C)NCC(C(=O)N1CCN(c2ncnc3c2C(C)CC3O)CC1)c1ccc(Cl)cc1	18.3
CC1(C)CCC(CN2CCN(c3ccc(C(=O)NS(=O)(=O)c4ccc(NCC5CCOCC5)c([N+](=O)[O-])c4)c(Oc4cnc5[nH]ccc5c4)c3)CC2)=C(c2ccc(Cl)cc2)C1 + CC(C)NCC(C(=O)N1CCN(c2ncnc3c2C(C)CC3O)CC1)c1ccc(Cl)cc1	27.3
Cc1nc(NC(=O)N2CCCC2C(N)=O)sc1-c1ccnc(C(C)(C)C(F)(F)F)c1 (stereo unspecified) + CCN1CCN(Cc2ccc(Nc3ncc(F)c(-c4cc(F)c5nc(C)n(C(C)C)c5c4)n3)nc2)CC1	34.7
CCCS(=O)(=O)Nc1ccc(F)c(C(=O)c2c[nH]c3ncc(-c4ccc(Cl)cc4)cc23)c1F + CCN1CCN(Cc2ccc(Nc3ncc(F)c(-c4cc(F)c5nc(C)n(C(C)C)c5c4)n3)nc2)CC1	44.4
CC(C)n1nc(-c2ccc3oc(N)nc3c2)c2c(N)ncnc21 + CC(C)NCC(C(=O)N1CCN(c2ncnc3c2C(C)CC3O)CC1)c1ccc(Cl)cc1	4.78
Cn1ncnc1[C@H]1c2n[nH]c(=O)c3cc(F)cc(c23)N[C@@H]1c1ccc(F)cc1 + CCN1CCN(Cc2ccc(Nc3ncc(F)c(-c4cc(F)c5nc(C)n(C(C)C)c5c4)n3)nc2)CC1	43
Cc1nc(NC(=O)N2CCCC2C(N)=O)sc1-c1ccnc(C(C)(C)C(F)(F)F)c1 (stereo unspecified) + CC(C)NCC(C(=O)N1CCN(c2ncnc3c2C(C)CC3O)CC1)c1ccc(Cl)cc1	15.6
COc1c(OCCCN2CCOCC2)ccc2c3n(c(=NC(=O)c4cnc(N)nc4)nc12)CCN3 + CC(C)NCC(C(=O)N1CCN(c2ncnc3c2C(C)CC3O)CC1)c1ccc(Cl)cc1	6.92
CCCS(=O)(=O)Nc1ccc(F)c(C(=O)c2c[nH]c3ncc(-c4ccc(Cl)cc4)cc23)c1F + CC(C)NCC(C(=O)N1CCN(c2ncnc3c2C(C)CC3O)CC1)c1ccc(Cl)cc1	22.4
Cn1nccc1Nc1nccc(-c2ccn(C(CO)c3ccc(Cl)c(F)c3)c(=O)c2)n1 (stereo unspecified) + CC(C)NCC(C(=O)N1CCN(c2ncnc3c2C(C)CC3O)CC1)c1ccc(Cl)cc1	18.7

###

# Test system: SK-OV-3 multi-cell spheroids, viability
# TEST SUMMARY: Anticancer human tumor SK-OV-3 cell line growth inhibition [IpAb];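 further: viability read after seven days of drug exposure; percent of DMSO vehicle control luminescence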
# PARTICULARS: second compound 10 µM; first compound 3.16 µM; hits give low values
# Experimental: Combinatorial screen of targeted agents with ipatasertib and abemaciclib in multi-cell type tumor spheroids […] Compounds. […] If the clinical Cmax for an agent had not been determined, the highest concentration tested was 10 microM. NCI60 Cell Culture. […] The optimal seeding densities for each of the cell lines at each time point assessed were determined prior to performing the concentration response studies. […]
Consider the following compounds and their measured viability, T/C readings.

COMPOUND	SYSTEM NAME	viability, T/C / %
Cn1nccc1Nc1nccc(-c2ccn(C(CO)c3ccc(Cl)c(F)c3)c(=O)c2)n1 (configuration not stated) + CC(C)NCC(C(=O)N1CCN(c2ncnc3c2C(C)CC3O)CC1)c1ccc(Cl)cc1	SK-OV-3 multi-cell spheroids, viability	6.98
C=CCn1c(=O)c2cnc(Nc3ccc(N4CCN(C)CC4)cc3)nc2n1-c1cccc(C(C)(C)O)n1 + CC(C)NCC(C(=O)N1CCN(c2ncnc3c2C(C)CC3O)CC1)c1ccc(Cl)cc1	SK-OV-3 multi-cell spheroids, viability	4.96
Cn1ncc(Cl)c1-c1cc(C(=O)NC(CN)Cc2cccc(F)c2)sc1Cl (configuration not stated) + CC(C)NCC(C(=O)N1CCN(c2ncnc3c2C(C)CC3O)CC1)c1ccc(Cl)cc1	SK-OV-3 multi-cell spheroids, viability	4.93
C=CC(=O)N1CCN(c2nc(=O)n(-c3c(C)ccnc3C(C)C)c3nc(-c4c(O)cccc4F)c(F)cc23)C(C)C1 (configuration not stated) + CC(C)NCC(C(=O)N1CCN(c2ncnc3c2C(C)CC3O)CC1)c1ccc(Cl)cc1	SK-OV-3 multi-cell spheroids, viability	10.9
CCCS(=O)(=O)Nc1ccc(F)c(C(=O)c2c[nH]c3ncc(-c4ccc(Cl)cc4)cc23)c1F + CC(C)NCC(C(=O)N1CCN(c2ncnc3c2C(C)CC3O)CC1)c1ccc(Cl)cc1	SK-OV-3 multi-cell spheroids, viability	9.71
Cc1nc(NC(=O)N2CCCC2C(N)=O)sc1-c1ccnc(C(C)(C)C(F)(F)F)c1 (configuration not stated) + CC(C)NCC(C(=O)N1CCN(c2ncnc3c2C(C)CC3O)CC1)c1ccc(Cl)cc1	SK-OV-3 multi-cell spheroids, viability	3.63
CC1(C)CCC(CN2CCN(c3ccc(C(=O)NS(=O)(=O)c4ccc(NCC5CCOCC5)c([N+](=O)[O-])c4)c(Oc4cnc5[nH]ccc5c4)c3)CC2)=C(c2ccc(Cl)cc2)C1 + CC(C)NCC(C(=O)N1CCN(c2ncnc3c2C(C)CC3O)CC1)c1ccc(Cl)cc1	SK-OV-3 multi-cell spheroids, viability	5.18

###

# System: SK-OV-3 multi-cell spheroids, viability
# TEST SUMMARY: Anticancer human tumor SK-OV-3 cell line growth inhibition [IpAb];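 further: viability read after seven days of drug exposure; percent of DMSO vehicle control luminescence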
# PARTICULARS: second compound 3.16 µM; first compound 0.0316 µM; hits give low values
Listing of entries alongside the reported viability, T/C.

COMPOUND	UNIT ANNOTATION	viability, T/C
Cc1nc(NC(=O)N2CCCC2C(N)=O)sc1-c1ccnc(C(C)(C)C(F)(F)F)c1 (stereo not given) + CC(C)NCC(C(=O)N1CCN(c2ncnc3c2C(C)CC3O)CC1)c1ccc(Cl)cc1	%	14.5
C=CC(=O)N1CCN(c2nc(=O)n(-c3c(C)ccnc3C(C)C)c3nc(-c4c(O)cccc4F)c(F)cc23)C(C)C1 (stereo not given) + CC(C)NCC(C(=O)N1CCN(c2ncnc3c2C(C)CC3O)CC1)c1ccc(Cl)cc1	%	14.8
C=CCn1c(=O)c2cnc(Nc3ccc(N4CCN(C)CC4)cc3)nc2n1-c1cccc(C(C)(C)O)n1 + CC(C)NCC(C(=O)N1CCN(c2ncnc3c2C(C)CC3O)CC1)c1ccc(Cl)cc1	%	13.8
Cn1nccc1Nc1nccc(-c2ccn(C(CO)c3ccc(Cl)c(F)c3)c(=O)c2)n1 (stereo not given) + CC(C)NCC(C(=O)N1CCN(c2ncnc3c2C(C)CC3O)CC1)c1ccc(Cl)cc1	%	15.6
CC(C)n1nc(-c2ccc3oc(N)nc3c2)c2c(N)ncnc21 + CC(C)NCC(C(=O)N1CCN(c2ncnc3c2C(C)CC3O)CC1)c1ccc(Cl)cc1	%	3.82
Cn1ncnc1[C@H]1c2n[nH]c(=O)c3cc(F)cc(c23)N[C@@H]1c1ccc(F)cc1 + CC(C)NCC(C(=O)N1CCN(c2ncnc3c2C(C)CC3O)CC1)c1ccc(Cl)cc1	%	12.8
Cn1ncc(Cl)c1-c1cc(C(=O)NC(CN)Cc2cccc(F)c2)sc1Cl (stereo not given) + CC(C)NCC(C(=O)N1CCN(c2ncnc3c2C(C)CC3O)CC1)c1ccc(Cl)cc1	%	15.7
CC1(C)CCC(CN2CCN(c3ccc(C(=O)NS(=O)(=O)c4ccc(NCC5CCOCC5)c([N+](=O)[O-])c4)c(Oc4cnc5[nH]ccc5c4)c3)CC2)=C(c2ccc(Cl)cc2)C1 + CC(C)NCC(C(=O)N1CCN(c2ncnc3c2C(C)CC3O)CC1)c1ccc(Cl)cc1	%	15.5
CCCS(=O)(=O)Nc1ccc(F)c(C(=O)c2c[nH]c3ncc(-c4ccc(Cl)cc4)cc23)c1F + CC(C)NCC(C(=O)N1CCN(c2ncnc3c2C(C)CC3O)CC1)c1ccc(Cl)cc1	%	17.1
COc1c(OCCCN2CCOCC2)ccc2c3n(c(=NC(=O)c4cnc(N)nc4)nc12)CCN3 + CC(C)NCC(C(=O)N1CCN(c2ncnc3c2C(C)CC3O)CC1)c1ccc(Cl)cc1	%	8.55
